# credit: patent US11970448B2

MEASURED_TARGET: recominbant human tryptase, beta, from lung (Homo sapiens, UniProt P20231)
Construct: purchased Promega or Enzo Life Sciences G5631 or BML-SE418
Sequence (P20231 31-275): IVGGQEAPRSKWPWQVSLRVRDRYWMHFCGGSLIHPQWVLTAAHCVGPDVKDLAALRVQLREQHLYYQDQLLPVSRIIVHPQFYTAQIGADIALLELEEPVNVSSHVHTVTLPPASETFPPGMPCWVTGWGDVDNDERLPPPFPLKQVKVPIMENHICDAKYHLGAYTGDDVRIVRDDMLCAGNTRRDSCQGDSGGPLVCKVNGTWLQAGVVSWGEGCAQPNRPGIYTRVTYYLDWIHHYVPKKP
ASSAY_COMMENT: Inhibition of tryptase activity by monomers and multimers (Boc-Gln-Ala-Arg-AMC fluorescence)
Type: biochemical
DETAILS: monomers against tryptase; read-out: IC50 range group of additional monomers (boronic acid, benzooxaborole, ligands)
Where a name gives a salt, the structure may show the parent alone.
Each record here notes measured IC50.

[
  {
    "MOLECULE": "NCc1cccc(C2CCN(C(=O)c3ccc(O)c(CO)c3)CC2)c1",
    "IC50": "0.1 to 1000 nM"
  },
  {
    "MOLECULE": "NCc1cccc(C2CCN(C(=O)C3CC4CCC3C(O)C4O)CC2)c1 (racemic) [T142EXOANTI]",
    "IC50": "10000 to 65000 nM"
  },
  {
    "MOLECULE": "NCc1cccc(C2CCN(C(=O)c3ccc(OCC(=O)N4C[C@@H](O)[C@@H](O)C4)cc3)CC2)c1",
    "IC50": "1000 to 10000 nM"
  },
  {
    "MOLECULE": "NCc1cccc(C2CCN(C(=O)C3CC4CC3C(O)C4O)CC2)c1 (racemic) [T140RACEENDO]",
    "IC50": "1000 to 10000 nM"
  },
  {
    "MOLECULE": "NCc1cccc(C2CCN(C(=O)c3cccc(C(=O)N4C[C@@H](O)[C@@H](O)C4)c3)CC2)c1 [T26diol trans]",
    "IC50": "1000 to 10000 nM"
  },
  {
    "MOLECULE": "NCc1cccc(C2CCN(C(=O)Cc3ccc(B(O)O)c(F)c3)CC2)c1 [T54BA]",
    "IC50": "1000 to 10000 nM"
  },
  {
    "MOLECULE": "NCc1cccc(C2CCN(C(=O)/C=C/c3ccc(O)c(O)c3)CC2)c1 [T24, hydrochloride]",
    "IC50": "1000 to 10000 nM"
  },
  {
    "MOLECULE": "NCc1ccc2c(c1)C1(CCN(C(=O)c3cccc(-c4cccc(B(O)O)c4F)c3)CC1)CO2",
    "IC50": "0.1 to 1000 nM"
  },
  {
    "MOLECULE": "NCc1cccc(C2CCN(C(=O)c3cccc(C(=O)N4C[C@@H](O)[C@H](O)C4)c3)CC2)c1 [T26diol cis]",
    "IC50": "1000 to 10000 nM"
  },
  {
    "MOLECULE": "NCc1ccc2c(c1)C1(CCN(C(=O)c3ccc(Cl)c(-c4cccc(B(O)O)c4)c3)CC1)CO2",
    "IC50": "0.1 to 1000 nM"
  },
  {
    "MOLECULE": "NCc1cccc(C2CCN(C(=O)c3ccc(B(O)O)c4cccnc34)CC2)c1",
    "IC50": "10000 to 65000 nM"
  },
  {
    "MOLECULE": "NCc1cccc(C2CCN(C(=O)c3cccc4cc(CO)c(O)cc34)CC2)c1",
    "IC50": "1000 to 10000 nM"
  },
  {
    "MOLECULE": "CN(Cc1ccccc1B(O)O)c1ccc2c(C(=O)N3CCC(c4cccc(CN)c4)CC3)cccc2c1",
    "IC50": "1000 to 10000 nM"
  },
  {
    "MOLECULE": "NCc1cccc(C2CCN(C(=O)/C=C/c3ccc(C(N)=O)c(O)c3)CC2)c1",
    "IC50": "0.1 to 1000 nM"
  },
  {
    "MOLECULE": "NCc1cccc(C2CCN(C(=O)c3cccc(O)c3O)CC2)c1",
    "IC50": "1000 to 10000 nM"
  },
  {
    "MOLECULE": "NCc1cccc(C2CCN(C(=O)c3cc4cc(O)c(O)cc4oc3=O)CC2)c1",
    "IC50": "10000 to 65000 nM"
  },
  {
    "MOLECULE": "NCc1cccc(C2CCN(C(=O)CCc3ccc(O)c(O)c3)CC2)c1 [T24Dihydro, (TFA salt)]",
    "IC50": "1000 to 10000 nM"
  },
  {
    "MOLECULE": "NCc1cccc(C2CCN(C(=O)c3ccc(C(N)=O)c(O)c3)CC2)c1",
    "IC50": "1000 to 10000 nM"
  }
]
